Data credit: patent US5602153A

- Target entity: smooth muscle angiotensin II receptor
- Test description: Assay A: Angiotensin II Binding Activity (displacement of 125I-AII, rat uterine membrane preparation)
- Experimental parameters: rat uterine membranes, 25 °C, 60 min; read-out: IC50 (50% displacement of total specifically bound 125I-AII)
Entries and their measured IC50 follow.

| Item smiles | Uom | IC50 |
| --- | --- | --- |
| CCCCc1nc(C(=O)N(C)C(C)(C)C)n(Cc2ccc(-c3ccccc3-c3nnn[nH]3)nc2)n1 | nM | 4.1 |
| CCCCc1nc(CCc2ccccc2)nn1Cc1ccc(-c2ccccc2-c2nnn[nH]2)nc1 | nM | 2.6 |
| CCCCc1nc(-c2ccccc2OC)n(Cc2ccc(-c3ccccc3-c3nnn[nH]3)nc2)n1 | nM | 290 |
| CCCCc1nc(-c2ccccc2C(C)C)n(Cc2ccc(-c3ccccc3-c3nnn[nH]3)nc2)n1 | nM | 11 |
| CCCCc1nc(CCCC)n(Cc2ccc(-c3ccncc3-c3nnn[nH]3)cc2)n1 | nM | 250 |
| CCCCc1nc(-c2ccccc2C)n(Cc2ccc(-c3ccccc3-c3nnn[nH]3)nc2)n1 | nM | 530 |
| CCCCc1nc(-c2ccccc2Cl)n(Cc2ccc(-c3ccccc3-c3nnn[nH]3)nc2)n1 | nM | 520 |
| CCCc1nc(CCC)n(Cc2ccc(-c3ccccc3-c3nnn[nH]3)nc2)n1 | nM | 72 |

* * *

- Target entity: rabbit aortic rings (Oryctolagus cuniculus)
- Construct: The thoracic aorta was removed, cleaned of adherent fat and connective tissue; from tissue; host or cells: thoracic aorta rings, endothelium removed, male New Zealand white rabbit
- Sequence (P34976 1-359): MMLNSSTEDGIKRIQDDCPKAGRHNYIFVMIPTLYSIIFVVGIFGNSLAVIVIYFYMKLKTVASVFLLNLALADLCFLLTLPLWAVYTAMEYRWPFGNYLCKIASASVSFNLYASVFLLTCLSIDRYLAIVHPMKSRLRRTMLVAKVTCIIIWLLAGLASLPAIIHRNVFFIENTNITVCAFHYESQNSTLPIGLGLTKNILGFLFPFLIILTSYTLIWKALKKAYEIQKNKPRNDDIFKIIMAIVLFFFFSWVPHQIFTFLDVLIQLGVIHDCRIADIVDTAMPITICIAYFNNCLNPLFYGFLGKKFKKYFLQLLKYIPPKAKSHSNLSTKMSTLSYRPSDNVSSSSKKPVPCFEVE
- Test description: Assay B: In Vitro Vascular Smooth Muscle-Response for AII (antagonist activity in rabbit aortic rings)
- Format: cell-based, rabbit (male New Zealand white)
- Experimental parameters: antagonist 10^-5 M for 5 min, AII challenge, first of two rabbits, read-out: pA2 (first value) (converted)
A collection of compounds and their measured Kb
Metric name: Kb

| Item smiles | Target entity | Test value |
| --- | --- | --- |
| CCCCc1nc(C(F)(F)CCC)n(Cc2ccc(-c3ccccc3-c3nnn[nH]3)nc2)n1 | rabbit aortic rings (Oryctolagus cuniculus) | 0.0209 µM |
| CCCCc1nc(CCCC)n(Cc2ccc(-c3ncccc3-c3nnn[nH]3)cc2)n1 | rabbit aortic rings (Oryctolagus cuniculus) | 0.229 µM |
| CCCCc1nc(C(=O)NC)n(Cc2ccc(-c3ccccc3-c3nnn[nH]3)nc2)n1 | rabbit aortic rings (Oryctolagus cuniculus) | 0.145 µM |
| CCCCc1nc(CCCC)n(Cc2ccc(-c3cccnc3-c3nnn[nH]3)cc2)n1 | rabbit aortic rings (Oryctolagus cuniculus) | 0.0776 µM |
| CCCCc1nc(C(F)(F)CCC)nn1Cc1ccc(-c2ccccc2-c2nnn[nH]2)nc1 | rabbit aortic rings (Oryctolagus cuniculus) | 0.0055 µM |
| CCCCc1nc(CCCC)n(Cc2ccc(-c3ccccc3-c3nnn[nH]3)cn2)n1 | rabbit aortic rings (Oryctolagus cuniculus) | 0.0132 µM |
| CCCCc1nc(C(=O)N(C)C(C)(C)C)nn1Cc1ccc(-c2ccccc2-c2nnn[nH]2)nc1 | rabbit aortic rings (Oryctolagus cuniculus) | 0.0245 µM |
| CCCCc1nc(C(=O)N(C)C(C)(C)C)n(Cc2ccc(-c3ccccc3-c3nnn[nH]3)nc2)n1 | rabbit aortic rings (Oryctolagus cuniculus) | 0.00372 µM |
| CCCc1nc(CCC)n(Cc2ccc(-c3ccccc3-c3nnn[nH]3)nc2)n1 | rabbit aortic rings (Oryctolagus cuniculus) | 0.0347 µM |
| CCCCc1nc(CCCC)n(Cc2ccc(-c3ccccc3-c3nnn[nH]3)nc2)n1 | rabbit aortic rings (Oryctolagus cuniculus) | 0.00269 µM |
| CCCCc1nc(CCCC)n(Cc2ccc(-c3cnccc3-c3nnn[nH]3)cc2)n1 | rabbit aortic rings (Oryctolagus cuniculus) | 0.0676 µM |
| CCCCc1nc(C(=O)NC)nn1Cc1ccc(-c2ccccc2-c2nnn[nH]2)nc1 | rabbit aortic rings (Oryctolagus cuniculus) | 0.234 µM |

* * *

- Target entity: smooth muscle angiotensin II receptor
- Test description: Assay A: Angiotensin II Binding Activity (displacement of 125I-AII, rat uterine membrane preparation)
- Experimental parameters: rat uterine membranes, 25 °C, 60 min; read-out: IC50 (50% displacement of total specifically bound 125I-AII)
pIC50: −log10 of the molar value.
// pIC50 lookup, one value per entry
Metric name: pIC50

| Item smiles | Test value |
| --- | --- |
| CCCCc1nc(CCCC)n(Cc2ccc(-c3ccccc3C(=O)O)nc2)n1 | 6.92 |
| CCCCc1nc(CC(C)(C)C)n(Cc2ccc(-c3ccccc3-c3nnn[nH]3)nc2)n1 | 7.37 |
| CCCCc1nc(CC(C)(C)C)nn1Cc1ccc(-c2ccccc2-c2nnn[nH]2)nc1 | 8.36 |
| CCCCc1nc(CCc2ccccc2)n(Cc2ccc(-c3ccccc3-c3nnn[nH]3)nc2)n1 | 7.14 |
| CCCCc1nc(CCCC)n(Cc2ccc(-c3ncccc3-c3nnn[nH]3)cc2)n1 | 7.01 |
| CCCCc1nc(C(F)(F)CCC)n(Cc2ccc(-c3ccccc3-c3nnn[nH]3)nc2)n1 | 7.70 |

* * *

Listing of recorded log10 IC50 by entry.
- Target entity: smooth muscle angiotensin II receptor
- Test description: Assay A: Angiotensin II Binding Activity (displacement of 125I-AII, rat uterine membrane preparation)
- Experimental parameters: rat uterine membranes, 25 °C, 60 min; read-out: IC50 (50% displacement of total specifically bound 125I-AII)
Metric name: log10 IC50 (log10 of the value in nM)

| Compound | log10 IC50 |
| --- | --- |
| CCCCc1nc(-c2ccccc2OC)nn1Cc1ccc(-c2ccccc2-c2nnn[nH]2)nc1 [Example 27] | 2.04 |
| CCCCc1nc(CC(CC)CC)n(Cc2ccc(-c3ccccc3-c3nnn[nH]3)nc2)n1 [Example 14] | 1.11 |
| CCCCc1nc(-c2ccccc2)n(Cc2ccc(-c3ccccc3-c3nnn[nH]3)nc2)n1 [Example 22] | 2.34 |
| CCCCc1nc(-c2ccccc2Cl)nn1Cc1ccc(-c2ccccc2-c2nnn[nH]2)nc1 [Example 29] | 1.40 |
| CCCCc1nc(-c2ccccc2)nn1Cc1ccc(-c2ccccc2-c2nnn[nH]2)nc1 [Example 21] | 1.73 |
| CCCCc1nc(-c2ccccc2C(C)C)nn1Cc1ccc(-c2ccccc2-c2nnn[nH]2)nc1 [Example 25] | 1.76 |
| CCCCc1nc(CC(CC)CC)nn1Cc1ccc(-c2ccccc2-c2nnn[nH]2)nc1 [Example 13] | 1.40 |
| CCCCc1nc(C(=O)N(C)C(C)(C)C)nn1Cc1ccc(-c2ccccc2-c2nnn[nH]2)nc1 [Example 17] | 1.08 |

* * *

- Test system: pressor response to AII
- Test description: Assay C: In Vivo Intragastric Pressor Assay Response for AII Antagonists
- Parameters: species or system rat (male Sprague-Dawley)
- Experimental parameters: po; 3 mg/kg i.g., rat, AII 30 ng/kg bolus

| Item smiles | inhibition in vivo at 3 mg/kg (%) |
| --- | --- |
| CCCCc1nc(C(F)(F)CCC)n(Cc2ccc(-c3ccccc3-c3nnn[nH]3)nc2)n1 | 10 |
| CCCCc1nc(CC(C)(C)C)nn1Cc1ccc(-c2ccccc2-c2nnn[nH]2)nc1 | 20 |
| CCCCc1nc(C(F)(F)CCC)nn1Cc1ccc(-c2ccccc2-c2nnn[nH]2)nc1 | 20 |
| CCCCc1nc(CC(C)(C)C)n(Cc2ccc(-c3ccccc3-c3nnn[nH]3)nc2)n1 | 0 |
| CCCCc1nc(CCCC)n(Cc2ccc(-c3ccccc3-c3nnn[nH]3)nc2)n1 | 40 |
| CCCCc1nc(C(=O)N(C)C(C)(C)C)n(Cc2ccc(-c3ccccc3-c3nnn[nH]3)nc2)n1 | 30 |
| CCCCc1nc(C(=O)N(C)C(C)(C)C)nn1Cc1ccc(-c2ccccc2-c2nnn[nH]2)nc1 | 20 |
| CCCCc1nc(-c2ccccc2Cl)nn1Cc1ccc(-c2ccccc2-c2nnn[nH]2)nc1 | 25 |
| CCCCc1nc(-c2ccccc2Cl)n(Cc2ccc(-c3ccccc3-c3nnn[nH]3)nc2)n1 | 0 |
| CCCCc1nc(CCCC)n(Cc2ccc(-c3ccccc3-c3nnn[nH]3)cn2)n1 | 20 |
